Data provenance is PubChem BioAssay.

Could you please report measured viability for the items listed next?
Assay: liver-stage malaria parasite growth inhibition, primary screen, cell-based, HepG2, luciferase luminescence, HepG2 viability (AID 624349);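 note: 100% = mean of DMSO negative control wells on the same plate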
Details: P. berghei liver stage in HepG2, luciferase luminescence, concentration not given here; measured here: HepG2 viability without parasites
Give a bare numeral; the unit % is implied.

Per the record, `Cc1ccc(S(=O)(=O)/C=C/C#N)cc1` has viability of 155

Lab book: viability of COC1CC2CCC(C)C(O)(O2)C(=O)C(=O)N2CCCCC2C(=O)OC(C(C)CC2CCC(O)C(OC)C2)CC(=O)C(C)/C=C(\C)C(O)C(OC)C(=O)C(C)CC(C)/C=C/C=C/C=C/1C (centres undefined) noted as 98.1

# compound `CC(=O)Nc1ccc(S(=O)(=O)c2ccc(NC(C)=O)cc2)cc1` ; its viability = 147

The compound FC(F)(F)C(Cl)Br (centres undefined) showed viability equal to 94.8

Just so you know, measured viability for NC[C@H]1O[C@H](O[C@H]2C(O[C@@H]3O[C@H](CO)[C@@H](O)[C@H]3O)[C@@H](O)[C@H](N)C[C@@H]2N)[C@H](N)[C@@H](O)[C@@H]1O (some centres undefined) came out at 89

Kindly note the recorded viability for CCC(=O)OCC(=O)[C@@]1(OC(=O)CC)[C@@H](C)CC2C3CCC4=CC(=O)C=C[C@]4(C)C3(F)[C@@H](O)C[C@@]21C (some centres undefined) , which is 83.8

Lab note: `CS(=O)(=O)c1ccc(-c2cc(Br)sc2-c2ccc(F)cc2)cc1` gave viability of 69.4

response.value for CCCCC/C=C/CCC(=O)N[C@H]1[C@H](Oc2c3cc4cc2Oc2ccc(cc2Cl)[C@@H](O[C@@H]2O[C@H](CO)[C@@H](O)[C@H](O)[C@H]2NC(C)=O)[C@@H]2NC(=O)[C@H](NC(=O)[C@@H]4NC(=O)[C@H]4NC(=O)C(Cc5ccc(c(Cl)c5)O3)NC(=O)[C@H](N)c3ccc(O)c(c3)Oc3cc(O)cc4c3)c3ccc(O)c(c3)-c3c(OC4O[C@H](CO)[C@@H](O)[C@H](O)[C@@H]4O)cc(O)cc3[C@@H](C(=O)O)NC2=O)O[C@H](CO)[C@@H](O)[C@@H]1O (some centres undefined) (field: viability) = 99.2

Entry C[C@]12C=CC(=O)C=C1CCC1C2[C@@H](O)C[C@@]2(C)C1CC[C@]2(O)C(=O)COC(=O)CCC(=O)O (some centres undefined) , viability reported as 98

Form: compound = `CO[C@H]1C=CO[C@@]2(C)Oc3c(C)c(O)c4c(O)c(c(C=NN5CCN(C6CCCC6)CC5)c(O)c4c3C2=O)NC(=O)C(C)=CC=C[C@H](C)[C@H](O)[C@@H](C)[C@@H](O)[C@@H](C)[C@H](OC(C)=O)[C@@H]1C` ; viability = 65.4

Entry under test: `C[C@@H](c1ncncc1F)[C@](O)(Cn1cncn1)c1ccc(F)cc1F` . Its viability was 75.1

CCCCCCCCCCCCCCCC(=O)OCC(O)[C@H]1OC(=O)C(O)=C1O (some centres undefined) has a reported viability of 230

For record `FC(F)(F)COCC(F)(F)F` the listed viability is 107

viability for O=C(OC1C[C@@H]2CC3C[C@H](C1)N2CC3=O)c1c[nH]c2ccccc12 (some centres undefined) is 72.3
